Field pIC50: reported value for Tyrosine-protein kinase JAK1 (Homo sapiens, UniProt P23458); entries drawn from several documents.
pIC50: −log10 of the molar value.

| Compound | Target or test system | pIC50 |
| --- | --- | --- |
| CC1=C(C)c2cc(Nc3nn([C@@H]4CCC[C@H]4C#N)cc3C(N)=O)cc(C)c2OB1O (relative stereo) | Tyrosine-protein kinase JAK1 (Homo sapiens, UniProt P23458) | 7.30 to 8.00 |
| Cn1cc(-c2cc3nccn3c(-c3cnn(C4(CC#N)CN(S(C)(=O)=O)C4)c3)n2)cn1 | Tyrosine-protein kinase JAK1 (Homo sapiens, UniProt P23458) | 6.00 to 7.00 |
| CN(c1ncnc2[nH]ccc12)C1CC2(C1)CN(C(=O)Nc1cccc(Cl)c1)C2 | Tyrosine-protein kinase JAK1 (Homo sapiens, UniProt P23458) | 6.00 to 7.00 |
| N#CCC1CCN(n2c(CCO)nc3cnc4[nH]ccc4c32)CC1 | Tyrosine-protein kinase JAK1 (Homo sapiens, UniProt P23458) | 9.18 |
| N#CCC1(n2cc(-c3ncnc4[nH]ccc34)cn2)CN(C2CCN(C(=O)c3ccnc(C(F)(F)F)c3F)CC2)C1 | Tyrosine-protein kinase JAK1 (Homo sapiens, UniProt P23458) | ≥ 8.30 |
| Cc1cnc(Nc2ccc3c(c2)CN(C)C3)nc1N1CC(CC#N)(N2CCC3(CC2)CC3(F)F)C1 | Tyrosine-protein kinase JAK1 (Homo sapiens, UniProt P23458) | > 8.00 |

Fill in pIC50 for `N#CCC1(n2cc(-c3c(F)cnc4[nH]ccc34)cn2)CN(C2CCN(C(=O)c3ccc(C#N)cc3F)CC2)C1` tested with Tyrosine-protein kinase JAK1 (Homo sapiens, UniProt P23458).
≥ 8.30

Tell me its pIC50 on Tyrosine-protein kinase JAK1 (Homo sapiens, UniProt P23458): Cc1cnc(Nc2ccc3c(C)n(C)nc3c2)nc1NC1CC2CN(C(=O)CC#N)CC2C1 (centres unmarked)
8.70
